Tested on: Cdk1 phosphorylated on tyrosine 15
Assay text: High-content imaging of pCdk1 Y15 by immunofluorescence in ACHN cells
Format: cell-based
Conditions: Homo sapiens, high-content imaging (IF), 4 h, 7 to 5000 nM, read-out: CDK1 Tyr15 Phosphorylation EC50 (IC50)
Experimental: ACHN renal cell carcinoma cell line (ATCC) was cultured in Minimum Essential Medium Eagle supplemented with 10% fetal calf serum (Sigma), 1% Penicillin-Streptomycin and 10 mM HEPES buffer (HyClone). Cell cultures were kept in a humidified incubator at 37° C. and 5% CO2. Cells were routinely tested for Mycoplasma contamination. High-content imaging of ACHN renal cell carcinoma cells was used for quantification of CDK1 phosphorylated on tyrosine 15 by immunofluorescence (“IF”). […]
Quantity kind: EC50

A selection of reference data follows.
In [3]: df
Out[3]:
                                   compound         result
0  CCOc1nc(Nc2cnn([C@@H](C)CN(C)C)c2)ncc1C(=O)Nc1c(Cl)cccc1Br      > 1000 nM
1  COc1nc(Nc2ccc([C@@H]3CCCN(C)C3)c(C)c2)ncc1C(=O)Nc1c(Cl)cccc1Br (single isomer, unassigned)  100 to 500 nM
2  COc1nc(Nc2ccc([C@@H]3CCN(C)C3)c(C)c2)ncc1C(=O)Nc1c(Cl)cccc1Br       ≤ 100 nM
3  COc1nc(Nc2ccc(OC3CCNCC3)cc2)ncc1C(=O)Nc1c(Cl)cccc1Cl  100 to 500 nM
4  COc1nc(Nc2ccc(C3CCN(C)CC3)c(C)c2)ncc1C(=O)Nc1c(F)cccc1Cl  100 to 500 nM

Q: Returns the measured EC50 for the input compound. Input: `COc1nc(Nc2ccc(C3CCN(C)CC3)c(C)c2)ncc1C(=O)Nc1c(Cl)cccc1C#N`
Result: > 1000 nM

Q: Likewise for `COc1nc(Nc2ccc(C3CCN(C)CC3)c(C)c2)ncc1C(=O)Nc1ccccc1Br` ?
Result: > 1000 nM

Q: Likewise for `COc1nc(Nc2ccc(C3CCN(C)CC3)c(Cl)c2)ncc1C(=O)Nc1c(Cl)cccc1Br` ?
Result: 100 to 500 nM

Q: Likewise for `COc1nc(Nc2ccc(C3CCN(C)CC3)c(C)c2)ncc1C(=O)Nc1c(C)cccc1C(F)(F)F` ?
Result: > 1000 nM

Q: Likewise for `COc1nc(Nc2ccc(O[C@@H]3CCN(C)C3)c(C)c2)ncc1C(=O)Nc1c(Cl)ccc(O)c1C` ?
Result: ≤ 100 nM

---

Tested on: Cdk1 phosphorylated on tyrosine 15
Assay text: High-content imaging of pCdk1 Y15 by immunofluorescence in ACHN cells
Type: cell-based
Conditions: Homo sapiens, high-content imaging (IF), 4 h, 7 to 5000 nM, read-out: CDK1 Tyr15 Phosphorylation EC50 (IC50)
pEC50: −log10 of the molar value.
Quantity kind: pEC50

In [3]: df
Out[3]:
                                   compound                              target  quantity_kind        result
0  COc1nc(Nc2cnn(C3CCN(C)CC3)c2)ncc1C(=O)Nc1c(Cl)cccc1Cl [Compound 163]  Cdk1 phosphorylated on tyrosine 15          pEC50  6.30 to 7.00
1  COc1cc(Nc2ncc(C(=O)Nc3c(Cl)cccc3Br)c(OC)n2)ccc1C1CCN(C)CC1 [Compound 216]  Cdk1 phosphorylated on tyrosine 15          pEC50  6.30 to 7.00
2  COc1nc(Nc2ccc(N3CCC4(CCN(C)CC4)CC3)cc2)ncc1C(=O)Nc1c(Cl)cccc1Br [Compound 209]  Cdk1 phosphorylated on tyrosine 15          pEC50  6.30 to 7.00

Now examine the next entry.
Q: Returns the measured pEC50 for the input compound. Input: COc1nc(Nc2ccc([C@H]3CCCNC3)c(C)c2)ncc1C(=O)Nc1c(Cl)cccc1Br [Compound 198]
Result: 6.30 to 7.00

---

compounds and their reported pEC50
System: Cdk1 phosphorylated on tyrosine 15
Assay text: High-content imaging of pCdk1 Y15 by immunofluorescence in ACHN cells
Format: cell-based
Conditions: Homo sapiens, high-content imaging (IF), 4 h, 7 to 5000 nM, read-out: CDK1 Tyr15 Phosphorylation EC50 (IC50)
pEC50: −log10 of the molar value.

In [3]: df
Out[3]:
                                   compound        result
0  COc1nc(Nc2ccc(C3CCN(C)CC3)c(C)c2)ncc1C(=O)Nc1c(Cl)cccc1C(F)(F)F  6.30 to 7.00

Q: Returns the measured pEC50 for the input compound. Input: `COc1nc(Nc2ccc(N3CCNCC3)c(C)c2)ncc1C(=O)Nc1c(Cl)cccc1Cl`
Result: 6.30 to 7.00

Q: Likewise for `COc1nc(Nc2ccc(O[C@@H]3CCNC3)c(C)c2)ncc1C(=O)Nc1c(Cl)cccc1Cl` ?
Result: ≥ 7.00

Q: Likewise for `COc1nc(Nc2ccc(OC3CCN(C)CC3)c(C)c2)ncc1C(=O)Nc1c(Cl)cccc1Br` ?
Result: 6.30 to 7.00

Q: Likewise for `CCOc1cc(Nc2ncc(C(=O)Nc3c(Cl)cccc3Br)c(OC)n2)ccc1C1CCN(C)CC1` ?
Result: 6.30 to 7.00

---

molecules and their reported IC50
Target: recombinant human Wee1A kinase (Homo sapiens)
Construct: full length Wee1A kinase was expressed by baculovirus in insect cells
Sequence (P30291 whole entry): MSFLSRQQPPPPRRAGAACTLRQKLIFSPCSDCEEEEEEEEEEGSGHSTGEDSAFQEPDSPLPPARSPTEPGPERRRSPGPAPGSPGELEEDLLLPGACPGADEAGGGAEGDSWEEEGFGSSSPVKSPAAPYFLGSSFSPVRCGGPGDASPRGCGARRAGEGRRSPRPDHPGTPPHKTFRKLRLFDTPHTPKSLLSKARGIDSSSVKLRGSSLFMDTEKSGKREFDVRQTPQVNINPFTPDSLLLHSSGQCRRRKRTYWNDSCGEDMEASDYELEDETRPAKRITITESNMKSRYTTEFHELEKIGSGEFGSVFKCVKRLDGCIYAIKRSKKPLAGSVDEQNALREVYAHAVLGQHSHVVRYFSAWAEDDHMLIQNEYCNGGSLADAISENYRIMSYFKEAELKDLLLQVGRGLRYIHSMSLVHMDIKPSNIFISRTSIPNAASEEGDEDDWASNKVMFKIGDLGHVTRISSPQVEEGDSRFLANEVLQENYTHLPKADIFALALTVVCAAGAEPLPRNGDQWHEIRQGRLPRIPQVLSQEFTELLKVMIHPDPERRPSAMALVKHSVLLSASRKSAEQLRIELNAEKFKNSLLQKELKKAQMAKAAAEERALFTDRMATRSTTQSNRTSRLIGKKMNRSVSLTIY
Assay text: LanthaScreen Europium (Eu) Kinase Binding Assay, Wee1A kinase (TR-FRET tracer displacement)
Conditions: 30 nM tracer 178, 5 nM Wee1A kinase, 60 minutes at room temperature

A selection of reference data follows.
>>> df
                                chem_smiles  quantity_kind        result
0  COc1nc(Nc2ccc(C3CCN(C)CC3)c(C)c2)ncc1C(=O)Nc1ccccc1C#N           IC50  10 to 100 nM
1  COc1nc(Nc2cnn(C)c2)ncc1C(=O)Nc1c(Cl)ccc(O)c1Cl           IC50       ≤ 10 nM
2  Cc1cc(Nc2ncc(C(=O)Nc3c(Cl)cccc3Cl)c(OC3CC3)n2)ccc1C1CCN(C)CC1           IC50       ≤ 10 nM

Now examine the next entry.
Q: Returns the measured IC50 for the input molecule. Input: `COc1nc(Nc2ccc(C3CCN(C)CC3)c(C)c2)ncc1C(=O)Nc1ccccc1Cl`
Result: 10 to 100 nM

---

Target: recombinant human Wee1A kinase (Homo sapiens)
Construct: full length Wee1A kinase was expressed by baculovirus in insect cells
Assay text: LanthaScreen Europium (Eu) Kinase Binding Assay, Wee1A kinase (TR-FRET tracer displacement)
Conditions: 30 nM tracer 178, 5 nM Wee1A kinase, 60 minutes at room temperature
compounds and their reported IC50

A selection of reference data follows.
>>> print(df.to_string())
                                   compound  quantity_kind        result
0  COc1nc(Nc2ccc([C@@H]3CCCNC3)c(C)c2)ncc1C(=O)Nc1c(Cl)cccc1Br [Compound 199]           IC50       ≤ 10 nM
1  C#Cc1cccc(Cl)c1NC(=O)c1cnc(Nc2ccc(C3CCN(C)CC3)c(C)c2)nc1OC [Compound 129]           IC50       ≤ 10 nM
2  COc1nc(Nc2ccc(OCCN3CCOCC3)c(C)c2)ncc1C(=O)Nc1c(Cl)cccc1Cl [Compound 144]           IC50       ≤ 10 nM
3  C#Cc1ccccc1NC(=O)c1cnc(Nc2ccc(C3CCN(C)CC3)c(C)c2)nc1OC [Compound 126]           IC50  10 to 100 nM

Q: Returns the measured IC50 for the input compound. Input: COc1nc(Nc2ccc([C@@H]3CCN(C)C3)c(C)c2)ncc1C(=O)Nc1c(Cl)cccc1Br [Compound 193]
Result: ≤ 10 nM

Q: Likewise for COc1nc(Nc2ccc([C@@H]3CCCN(C)C3)c(C)c2)ncc1C(=O)Nc1c(Cl)cccc1Br (single isomer, unassigned) [Compound 197] ?
Result: ≤ 10 nM

Q: Likewise for CN1CCN(c2ccc(Nc3ncc(C(=O)Nc4c(Cl)cccc4Cl)c(OCCO)n3)cc2)CC1 [Compound 123] ?
Result: 10 to 100 nM

---

compounds and their reported pEC50
Tested on: Cdk1 phosphorylated on tyrosine 15
Assay text: High-content imaging of pCdk1 Y15 by immunofluorescence in ACHN cells
Format: cell-based
Conditions: Homo sapiens, high-content imaging (IF), 4 h, 7 to 5000 nM, read-out: CDK1 Tyr15 Phosphorylation EC50 (IC50)
Method: ACHN renal cell carcinoma cell line (ATCC) was cultured in Minimum Essential Medium Eagle supplemented with 10% fetal calf serum (Sigma), 1% Penicillin-Streptomycin and 10 mM HEPES buffer (HyClone). Cell cultures were kept in a humidified incubator at 37° C. and 5% CO2. Cells were routinely tested for Mycoplasma contamination. High-content imaging of ACHN renal cell carcinoma cells was used for quantification of CDK1 phosphorylated on tyrosine 15 by immunofluorescence (“IF”). […]
pEC50: −log10 of the molar value.

In [3]: df
Out[3]:
                                   compound        result
0  COc1nc(Nc2ccc(N3CCNCCC3=O)c(C)c2)ncc1C(=O)Nc1c(Cl)cccc1Cl [Compound 167]  6.30 to 7.00

Q: Returns the measured pEC50 for the input compound. Input: CCOc1nc(Nc2cnn(CCCN(C)C)c2)ncc1C(=O)Nc1c(Cl)cccc1Br [Compound 200]
Result: 6.30 to 7.00

Q: Likewise for COc1nc(Nc2cnn([C@H]3CCCN(C)CC3)c2)ncc1C(=O)Nc1c(Cl)cccc1Cl [Compound 189] ?
Result: 6.30 to 7.00
